Target: PAR2 (HT-29 cells) (Homo sapiens, UniProt P55085)
Construct: host or cells: HT-29
Sequence (P55085 26-397): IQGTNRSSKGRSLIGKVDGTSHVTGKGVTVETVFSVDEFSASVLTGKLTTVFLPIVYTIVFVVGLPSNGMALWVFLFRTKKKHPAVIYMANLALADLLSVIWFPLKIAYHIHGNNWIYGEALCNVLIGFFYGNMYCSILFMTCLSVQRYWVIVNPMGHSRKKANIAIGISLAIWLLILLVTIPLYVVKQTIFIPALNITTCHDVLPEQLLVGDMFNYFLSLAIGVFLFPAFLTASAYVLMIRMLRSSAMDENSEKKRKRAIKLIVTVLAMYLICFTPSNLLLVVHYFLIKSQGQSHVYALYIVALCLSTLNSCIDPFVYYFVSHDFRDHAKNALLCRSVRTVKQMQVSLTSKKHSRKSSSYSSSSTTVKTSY
Assay: Ca FLIPR TETRA assay, ANTAGONIST mode, activator 3.1 U/mL trypsin
Format: cell-based
Settings: HT-29 cells, activator 3.1 U/mL trypsin; maximal antagonist concentration per Method (A: 0.1, 1 or 2 μM; B: 50 μM)
Please respond with fulfilled when measured IC50 is strictly beneath 10 nM, and with not fulfilled in all other cases.

IN: Determine whether this compound shows IC50 lower than 10 nM (ties excluded): CC(C)(C)c1cc(C2CCC(F)(F)CC2)nc2cc(C(=O)N3CCN(C(=O)[C@H]4CC[C@@](C)(C(=O)O)CC4)C(=O)C3(C)C)oc12
OUT: not fulfilled

IN: Determine whether this compound shows IC50 lower than 10 nM (ties excluded): CC(C)c1cc(-c2ccc(F)cc2)nc2cc(C(=O)N3CCN(C(=O)CC(C)(C)O)CC3(C)C)oc12
OUT: not fulfilled

IN: Determine whether this compound shows IC50 lower than 10 nM (ties excluded): CC(C)(O)C(=O)N1CCN(C(=O)c2cc3nc(-c4ccc(F)cc4)cc(C4CC4)c3o2)C(C)(C)C1
OUT: not fulfilled

IN: Determine whether this compound shows IC50 lower than 10 nM (ties excluded): CC(C)(C)c1cc(-c2ccc(Cl)cc2)nc2cc(C(=O)N3CCN(c4ccc(C(=O)O)cn4)C(=O)C3(C)C)oc12
OUT: fulfilled

IN: Determine whether this compound shows IC50 lower than 10 nM (ties excluded): CN1CCN(C(=O)c2cc3nc(-c4ccc(Cl)c(F)c4)cc(C(C)(C)C)c3o2)C(C)(C)C1=O
OUT: fulfilled

IN: Determine whether this compound shows IC50 lower than 10 nM (ties excluded): CC(C)c1cc(-c2ccc(C(F)(F)F)cc2)nc2cc(C(=O)N3CCNC(=O)C3(C)C)oc12
OUT: not fulfilled

IN: Determine whether this compound shows IC50 lower than 10 nM (ties excluded): CC(C)c1cc(-c2ccc(F)cc2)nc2cc(C(=O)N3CCN(C(=O)[C@H]4C[C@](O)(C(F)(F)F)C4)CC3(C)C)oc12
OUT: fulfilled

====

target: PAR2 (HT-29 cells) (Homo sapiens); construct: host or cells: HT-29; test: Ca FLIPR TETRA assay, ANTAGONIST mode, activator 8 μM SLIGKV; format: cell-based; settings: HT-29 cells, activator 8 μM SLIGKV; maximal antagonist concentration per Method (A: 0.1, 1 or 2 μM; B: 50 μM)
attribute-measured: pIC50
Here pIC50 is given on a logarithmic scale as minus log10 of the concentration in mol/L.

IN: Recorded pIC50 for CC(C)c1cc(-c2ccc(F)cc2)nc2cc(C(=O)N3CCN(C(=O)c4ccno4)[C@@H](C)C3)oc12 , please?
OUT: 6.41

IN: Recorded pIC50 for CCC(C)(C)C(=O)N1CCN(C(=O)c2cc3nc(-c4ccc(F)cc4)cc(C4(C)CC4)c3o2)C(C)(C)C1 , please?
OUT: 8.38

IN: Recorded pIC50 for CC(C)(C)c1cc(C2CCC(F)(F)CC2)nc2cc(C(=O)N3CCN(C(=O)CCS(C)(=O)=O)CC3(C)C)oc12 , please?
OUT: 6.67

IN: Recorded pIC50 for COC(=O)C12CC(C(=O)N3CCN(C(=O)c4cc5nc(-c6ccc(F)cc6)cc(C(C)(C)C)c5o4)C(C)(C)C3)(C1)C2 , please?
OUT: 7.96

IN: Recorded pIC50 for CC(C)(O)C(=O)N1CCN(C(=O)c2cc3nc(-c4ccc(F)cc4)cc(C4CC4)c3o2)C(C)(C)C1 , please?
OUT: 6.92

IN: Recorded pIC50 for CC(C)(C)c1cc(-c2ccc(C(F)(F)F)cc2)nc2cc(C(=O)N3CCNC(=O)C3(C)C)oc12 , please?
OUT: 7.74

IN: Recorded pIC50 for CC1(C)CCC(c2cc(C(C)(C)C)c3oc(C(=O)N4CCN(c5ccccn5)CC4(C)C)cc3n2)CC1 , please?
OUT: 7.68

====

Exercise: state measured log10 of IC50 for each of the compounds provided.
target: PAR2 (HT-29 cells) (Homo sapiens, UniProt P55085); construct: host or cells: HT-29; test: Ca FLIPR TETRA assay, ANTAGONIST mode, activator 3.1 U/mL trypsin; format: cell-based; settings: HT-29 cells, activator 3.1 U/mL trypsin; maximal antagonist concentration per Method (A: 0.1, 1 or 2 μM; B: 50 μM)
Hey, these are logged values: log10 of IC50, nM being the unit before logging.

IN: Recorded log10 of IC50 for CC1(c2cc(-c3ccc(F)cc3)nc3cc(C(=O)N4CCN(C(=O)C5(O)CCOCC5)CC4(C)C)oc23)CC1 , please?
OUT: 1.89

IN: Recorded log10 of IC50 for CC(C)c1cc(-c2ccc(F)cc2)nc2cc(C(=O)N3CCN(C(=O)C4(O)CCOCC4)C[C@H]3C)oc12 , please?
OUT: 4.04

IN: Recorded log10 of IC50 for CC(C)c1cc(-c2ccc(F)cc2)nc2cc(C(=O)N3CCNC(=O)C3(C)C)oc12 , please?
OUT: 1.30

IN: Recorded log10 of IC50 for Cc1ccc(-c2cc(C(C)(C)C)c3oc(C(=O)N4CCNC(=O)C4(C)C)cc3n2)cc1 , please?
OUT: 1.28

IN: Recorded log10 of IC50 for CC(Oc1ccccc1)C(=O)N1CCN(C(=O)c2cc3nc(-c4ccc(F)cc4)cc(C(C)C)c3o2)C(C)(C)C1 (stereo not shown) , please?
OUT: 0.87

IN: Recorded log10 of IC50 for CC(C)(C)c1cc(C2CCC(F)(F)CC2)nc2cc(C(=O)N3CCNC(=O)C3(C)C)oc12 , please?
OUT: 2.38

IN: Recorded log10 of IC50 for Cc1nnc(C(=O)N2CCN(C(=O)c3cc4nc(-c5ccc(F)cc5)cc(C(C)(C)C)c4o3)C(C)(C)C2)[nH]1 , please?
OUT: 0.49

====

Exercise: state measured IC50 for each of the compounds provided.
Molecular target: PAR2 (HT-29 cells) (Homo sapiens, UniProt P55085)
Construct: host or cells: HT-29
Assay: Ca FLIPR TETRA assay, ANTAGONIST mode, activator 3.1 U/mL trypsin
Format: cell-based
Settings: HT-29 cells, activator 3.1 U/mL trypsin; maximal antagonist concentration per Method (A: 0.1, 1 or 2 μM; B: 50 μM)
Procedure: Protocol for Testing PAR2 Compounds in ANTAGONIST Mode Using the Ca FLIPR^TETRA Assay (384 Well). […] A first read was performed to determine whether the test compounds on their own can activate Ca^2+ responses. The cells were incubated with the compounds for 30 min at r. t. and then read in ANTAGONIST mode in the same plate by stimulating with 6.2 uL of a fixed concentration of the activator: final concentrations 8 μM SLIGKV, 1 U/mL Thrombin, 3.1 U/mL trypsin, or 0.6 μM UTP.
Report as a plain number; the unit nM is understood.

IN: Recorded IC50 for Cc1cc(-c2cc(C(C)(C)C)c3oc(C(=O)N4CCN(C(=O)c5nnc[nH]5)CC4(C)C)cc3n2)ccc1F [Example I-162] , please?
OUT: 15

IN: Recorded IC50 for CC(C)(C)c1cc(C2CCC(F)(F)CC2)nc2cc(C(=O)N3CCN(C(=O)[C@H]4C[C@@](C)(O)C4)CC3(C)C)oc12 [Example I-234] , please?
OUT: 38

IN: Recorded IC50 for CC1(C)C(=O)NCCN1C(=O)c1cc2nc(-c3ccc(F)cc3)cc(C3CCCCC3)c2o1 [Example I-211] , please?
OUT: 17

IN: Recorded IC50 for CC(C)(C)c1cc(-c2ccc(Cl)c(F)c2)nc2cc(C(=O)N3CCNC(=O)C3(C)C)oc12 [Example I-172] , please?
OUT: 12

IN: Recorded IC50 for Cc1cc(-c2cc(C(C)(C)C)c3oc(C(=O)N4CCNC(=O)C4(C)C)cc3n2)ccc1F [Example I-161] , please?
OUT: 25

IN: Recorded IC50 for Cc1cc(C(=O)N2CCN(C(=O)c3cc4nc(-c5ccc(Cl)cc5)cc(C(C)(C)C)c4o3)C(C)(C)C2)[nH]n1 [Example I-177] , please?
OUT: 2

IN: Recorded IC50 for CC(C)(C)c1cc(C2CC3(CCC3)C2)nc2cc(C(=O)N3CCN(C(=O)CCC(=O)O)CC3(C)C)oc12 [Example I-292] , please?
OUT: 7.1

IN: Recorded IC50 for CC(C)c1cc(-c2ccc(F)cc2)nc2cc(C(=O)N3CCN(C(=O)C4CC4(C)C)CC3(C)C)oc12 (stereo not drawn) [Example I-22] , please?
OUT: 2

IN: Recorded IC50 for CC(C)c1cc(-c2ccc(F)cc2)nc2cc(C(=O)N3CCN(C(=O)c4ccnn4C)CC3(C)C)oc12 [Example I-139] , please?
OUT: 33

IN: Recorded IC50 for CCOC(=O)N1CCN(C(=O)c2cc3nc(-c4ccc(F)cc4)cc(C4(C)CC4)c3o2)C(C)(C)C1 [Example I-108] , please?
OUT: 1.8

IN: Recorded IC50 for CC(C)(C)c1cc(-c2ccc(F)cc2)nc2cc(C(=O)N3CCN(C(=O)CCC(=O)O)CC3(C)C)oc12 [Example I-194] , please?
OUT: 22

IN: Recorded IC50 for Cc1cc(C(=O)N2CCN(C(=O)c3cc4nc(-c5ccc(F)cc5)cc(C5(C)CC5)c4o3)C[C@@H]2C)n(C)n1 [Example I-123] , please?
OUT: 930

IN: Recorded IC50 for CC(C)(C)c1cc(-c2ccc(F)cc2)nc2cc(C(=O)N3CCN(C(=O)c4ccc(C(=O)O)cc4)CC3(C)C)oc12 [Example I-192] , please?
OUT: 13

IN: Recorded IC50 for CC(C)c1cc(-c2ccc(F)cc2)nc2cc(C(=O)N3CCN(C(=O)C(C)(C)O)CC3(C)C)oc12 [Example I-1] , please?
OUT: 64

IN: Recorded IC50 for CC(C)C(=O)N1CCN(C(=O)c2cc3nc(-c4ccc(F)cc4)cc(C4(C)CC4)c3o2)C(C)(C)C1 [Example I-46] , please?
OUT: 7

IN: Recorded IC50 for CC(C)(C)c1cc(-c2ccc(Cl)cc2)nc2cc(C(=O)N3CCN(c4ccncc4)CC3(C)C)oc12 [Example I-262] , please?
OUT: 1900

IN: Recorded IC50 for CC(C)(C)c1cc(-c2ccc(F)cc2)nc2cc(C(=O)N3CCN(C(=O)CCS(C)(=O)=O)CC3(C)C)oc12 [Example I-213] , please?
OUT: 53

IN: Recorded IC50 for Cc1cnoc1C(=O)N1CCN(C(=O)c2cc3nc(-c4ccc(F)cc4)cc(C(C)C)c3o2)C(C)(C)C1 [Example I-140] , please?
OUT: 3.5

IN: Recorded IC50 for CC(C)(C)c1cc(-c2ccc(Cl)c(F)c2)nc2cc(C(=O)N3CCN(C(=O)c4ccc(C(=O)O)nc4)CC3(C)C)oc12 [Example I-252] , please?
OUT: 140

IN: Recorded IC50 for C[C@H]1CN(C(=O)c2cc3nc(-c4ccc(F)cc4)cc(C4(C)CC4)c3o2)CCN1C(=O)C(C)(C)O [Example I-109] , please?
OUT: 3400

IN: Recorded IC50 for C[C@H]1CN(C(=O)c2cc3nc(-c4ccc(F)cc4)cc(C4(C)CC4)c3o2)CCN1C(=O)C1CC1 [Example I-116] , please?
OUT: 990

IN: Recorded IC50 for CC1(c2cc(-c3ccc(F)cc3)nc3cc(C(=O)N4CCN(C(=O)C5(O)CC5)CC4(C)C)oc23)CC1 [Example I-26] , please?
OUT: 8

IN: Recorded IC50 for CC(C)c1cc(-c2ccc(F)cc2)nc2cc(C(=O)N3CCN(C(=O)C(C)(C)O)CC3)oc12 [Example I-96] , please?
OUT: 12000

IN: Recorded IC50 for CC(C)(C)C[C@@H](O)C(=O)N1CCN(C(=O)c2cc3nc(-c4ccc(F)cc4)nc(C4(C)CC4)c3o2)C(C)(C)C1 [Example I-129] , please?
OUT: 270

IN: Recorded IC50 for CC(C)c1cc(-c2ccc(F)cc2)nc2cc(C(=O)N3CCN(C(=O)C4CC4(F)F)CC3(C)C)oc12 (single isomer, unassigned) [Example I-76] , please?
OUT: 100

IN: Recorded IC50 for CC(C)(C)OC(=O)N1CCN(C(=O)c2cc3nc(-c4ccc(F)cc4)cc(Cl)c3o2)C(C)(C)C1 [Example I-2] , please?
OUT: 29

IN: Recorded IC50 for CNS(=O)(=O)CC(=O)N1CCN(C(=O)c2cc3nc(C4CCC(F)(F)CC4)cc(C(C)(C)C)c3o2)C(C)(C)C1=O [Example I-219] , please?
OUT: 50

Recorded values, source patent US20180057505A1.
